# TARGET_OF_ASSAY: Phospho-EGFR in H1975 cell line (Homo sapiens, UniProt P00533, L858R/T790M)
# Construct: H1975 cell line was obtained from American Type Culture Collection
# Sequence (P00533 25-1210 T790M/L858R): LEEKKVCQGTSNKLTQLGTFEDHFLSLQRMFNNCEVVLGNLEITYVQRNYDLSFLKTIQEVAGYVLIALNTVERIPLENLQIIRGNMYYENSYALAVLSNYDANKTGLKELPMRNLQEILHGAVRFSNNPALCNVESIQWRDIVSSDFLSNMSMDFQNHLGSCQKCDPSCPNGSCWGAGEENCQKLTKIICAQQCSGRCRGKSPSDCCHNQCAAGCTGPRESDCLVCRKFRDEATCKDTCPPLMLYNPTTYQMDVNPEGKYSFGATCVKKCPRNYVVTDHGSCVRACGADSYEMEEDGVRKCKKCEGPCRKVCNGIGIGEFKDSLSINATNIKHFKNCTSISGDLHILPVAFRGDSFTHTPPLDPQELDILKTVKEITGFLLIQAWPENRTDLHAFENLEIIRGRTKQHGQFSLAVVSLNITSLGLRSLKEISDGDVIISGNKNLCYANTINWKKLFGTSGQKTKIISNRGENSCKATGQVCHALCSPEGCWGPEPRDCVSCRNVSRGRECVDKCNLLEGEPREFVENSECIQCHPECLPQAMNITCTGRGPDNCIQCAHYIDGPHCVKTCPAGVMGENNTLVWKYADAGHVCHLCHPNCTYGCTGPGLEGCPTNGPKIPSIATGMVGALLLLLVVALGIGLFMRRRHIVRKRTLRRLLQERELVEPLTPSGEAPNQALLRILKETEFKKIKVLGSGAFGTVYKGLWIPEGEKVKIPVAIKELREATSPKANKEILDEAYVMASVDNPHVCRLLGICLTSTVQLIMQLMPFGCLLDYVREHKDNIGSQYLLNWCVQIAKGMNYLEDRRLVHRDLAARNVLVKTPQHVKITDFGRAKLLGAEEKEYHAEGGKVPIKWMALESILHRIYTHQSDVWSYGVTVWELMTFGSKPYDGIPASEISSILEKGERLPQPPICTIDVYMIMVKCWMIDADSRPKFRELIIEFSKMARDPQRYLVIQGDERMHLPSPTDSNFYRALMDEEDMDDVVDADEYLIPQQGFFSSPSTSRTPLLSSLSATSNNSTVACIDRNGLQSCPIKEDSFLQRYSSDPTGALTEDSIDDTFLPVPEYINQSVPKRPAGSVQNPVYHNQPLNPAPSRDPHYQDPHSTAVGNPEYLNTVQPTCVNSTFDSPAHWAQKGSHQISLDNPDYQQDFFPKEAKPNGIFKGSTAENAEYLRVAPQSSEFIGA
# ASSAY_METHOD_TEXT: HTRF Phospo EGFR Assay (Cellular)
# PROTOCOL_CONDITIONS: H1975 cells; 6 hours compound incubation in starving medium; HTRF anti-Phospho-EGFR readout
pIC50: −log10 of the molar value.
Where pIC50 equals or exceeds 8, the correct label is rule met; where it does not, the label is rule not met.

Completed entries (count: 5):
>>> print(df.to_string())
                                   compound  class_assignment
0  NCc1ccc(C#Cc2ccc3c(c2)C(=O)N(C(C(=O)Nc2nccs2)c2ccccc2)C3)cc1 (racemic)      rule not met
1  O=C(Nc1nccs1)C(c1ccccc1)N1Cc2ccc(C#Cc3ccc(C(=O)N4CCOCC4)nc3)cc2C1=O (racemic)      rule not met
2  Nc1ccc(C#Cc2ccc3c(c2)C(=O)N(C(C(=O)Nc2nccs2)c2ccccc2)C3)cn1 (racemic)      rule not met
3  O=C(Nc1nccs1)C(c1ccccc1)N1Cc2ccc(C#Cc3ccccc3)cc2C1=O (racemic)      rule not met
4  O=C(Nc1nccs1)C(c1ccccc1)N1Cc2ccc(C#Cc3ccc(CN4CCOCC4)cc3)cc2C1=O (racemic)      rule not met

input: Hi team, for Cc1c(C#Cc2ccc(N)nc2)ccc2c1C(=O)N(C(C(=O)Nc1ccccn1)c1cc(F)ccc1O)C2 (racemic) , is the recorded pIC50 at or above 8?
output: rule met

input: Determine whether measured pIC50 meets or exceeds 8 for Nc1ccc(C#Cc2ccc3c(c2)C(=O)N(C(C(=O)Nc2nccs2)c2n[nH]c4c2CCC4)C3)cn1 (racemic)
output: rule met

input: Test whether the compound Nc1ccc(C#Cc2ccc3c(c2)C(=O)N(C(C(=O)Nc2nccs2)c2ccccc2O)C3)cn1 (racemic) records pIC50 of 8 or higher.
output: rule met
